Source listed as ChEMBL document CHEMBL6134855.

test: Proteolytic stability of compound in human plasma assessed as protease-mediated degradation by measuring compound remaining at 200 uM incubated for 30 mins by UHPLC analysis; type: ADME, cell-free; settings: read-out: Stability
Where a SMILES comes first, the peptide text is derived from it. [ ]: non-standard residue; d: D form. N(4-MeOBn)Gly = COc1ccc(CNCC(=O)O)cc1
Outcome measure: remaining at 0.5 h, 200 µM

[[record]]
compound = "COc1ccc(CN(CC(=O)N[C@@H](CCCNC(=N)N)C(=O)N[C@@H](CCCNC(=N)N)C(=O)N[C@@H](Cc2ccc(O)cc2)C(=O)N[C@@H](Cc2ccc(O)cc2)C(=O)N[C@@H](CO)C(=O)O)C(=O)[C@H](CC(=O)O)NC(=O)[C@H](CCCCN)NC(=O)[C@H](CO)NC(=O)CNC(=O)[C@@H](NC(=O)[C@H](Cc2ccccc2)NC(=O)[C@H](Cc2ccc(O)cc2)NC(=O)[C@@H](N)CCCCN)[C@@H](C)O)cc1 (H-KYFTGSKD[N(4-MeOBn)Gly]RRYYS-OH)"
reading = "< 30%"


* * *

target: 20S proteasome (Homo sapiens) (UniProt P49721+P20618+P28074+P28062+P28065+P28072+P25786+P25787+P25788+P25789+P28066+P60900+O14818+Q8TAA3+P40306+A5LHX3+P49720+P28070+Q99436); test: Activation of human erythrocyte-derived 20S proteasome using Dabcyl-EDANS as FRET-type substrate at 1.0 to 50 uM measured every two mins for 60 mins by fluorescence based analysis; format: cell-based; conditions: filed as activator, dose 1-50 µM
Activity calls are given as the source filed them. The rule behind the calls is not given here. Where a SMILES comes first, the peptide text is derived from it. [ ]: non-standard residue; d: D form. NMeY = CN[C@@H](Cc1ccc(O)cc1)C(=O)O; Gly(N-CH2CH2OH) = O=C(O)CNCCO; NMeK = CN[C@@H](CCCCN)C(=O)O; Nlys = NCCCCNCC(=O)O
Outcome measure: Activity

[[record]]
molecule = "C[C@@H](O)[C@H](NC(=O)[C@H](Cc1ccccc1)NC(=O)[C@H](Cc1ccc(O)cc1)NC(=O)[C@@H](N)CCCCN)C(=O)NCC(=O)N[C@@H](CO)C(=O)N[C@@H](CCCCN)C(=O)N[C@@H](CC(=O)O)C(=O)N[C@@H](Cc1c[nH]c2ccccc12)C(=O)N[C@@H](CCCNC(=N)N)C(=O)N(CCO)CC(=O)N[C@@H](Cc1ccc(O)cc1)C(=O)N[C@@H](Cc1ccc(O)cc1)C(=O)N[C@@H](CO)C(=O)O (H-KYFTGSKDWR[Gly(N-CH2CH2OH)]YYS-OH)"
outcome_measure = "Activity"
reading = "Active"

[[record]]
molecule = "C[C@@H](O)[C@H](NC(=O)[C@H](Cc1ccccc1)NC(=O)[C@H](Cc1ccc(O)cc1)NC(=O)CNCCCCN)C(=O)NCC(=O)N[C@@H](CO)C(=O)N[C@@H](CCCCN)C(=O)N[C@@H](CC(=O)O)C(=O)N[C@@H](Cc1ccc(O)cc1)C(=O)N[C@@H](CCCNC(=N)N)C(=O)N[C@@H](CCCNC(=N)N)C(=O)N[C@@H](Cc1ccc(O)cc1)C(=O)N[C@@H](Cc1ccc(O)cc1)C(=O)N[C@@H](CO)C(=O)O (H-[Nlys]YFTGSKDYRRYYS-OH)"
outcome_measure = "Activity"
reading = "Active"

[[record]]
molecule = "CN[C@@H](CCCCN)C(=O)N(C)[C@@H](Cc1ccc(O)cc1)C(=O)N[C@@H](Cc1ccccc1)C(=O)N[C@H](C(=O)NCC(=O)N[C@@H](CO)C(=O)N[C@@H](CCCCN)C(=O)N[C@@H](CC(=O)O)C(=O)N[C@@H](Cc1c[nH]c2ccccc12)C(=O)N[C@@H](CCCNC(=N)N)C(=O)N[C@@H](CO)C(=O)N[C@@H](Cc1ccc(O)cc1)C(=O)N[C@@H](Cc1ccc(O)cc1)C(=O)N[C@@H](CO)C(=O)O)[C@@H](C)O (H-[NMeK][NMeY]FTGSKDWRSYYS-OH)"
outcome_measure = "Activity"
reading = "Active"

[[record]]
molecule = "C[C@@H](O)[C@H](NC(=O)[C@H](Cc1ccccc1)NC(=O)[C@H](Cc1ccc(O)cc1)NC(=O)CNCCCCN)C(=O)NCC(=O)N[C@@H](CO)C(=O)N[C@@H](CCCCN)C(=O)N[C@@H](CC(=O)O)C(=O)N[C@@H](Cc1c[nH]c2ccccc12)C(=O)N[C@@H](CCCNC(=N)N)C(=O)N(CCO)CC(=O)N[C@@H](Cc1ccc(O)cc1)C(=O)N[C@@H](Cc1ccc(O)cc1)C(=O)N[C@@H](CO)C(=O)O (H-[Nlys]YFTGSKDWR[Gly(N-CH2CH2OH)]YYS-OH)"
outcome_measure = "Activity"
reading = "Active"

